This collection of values is drawn from patent US12637410B2.

# maps each entry to its Ki
# systemTested: hERG channel (Homo sapiens)
# Construct: purchased; host or cells: HEK-293 cells stably expressing hERG (membranes)
# Sequence (Q12809 whole entry): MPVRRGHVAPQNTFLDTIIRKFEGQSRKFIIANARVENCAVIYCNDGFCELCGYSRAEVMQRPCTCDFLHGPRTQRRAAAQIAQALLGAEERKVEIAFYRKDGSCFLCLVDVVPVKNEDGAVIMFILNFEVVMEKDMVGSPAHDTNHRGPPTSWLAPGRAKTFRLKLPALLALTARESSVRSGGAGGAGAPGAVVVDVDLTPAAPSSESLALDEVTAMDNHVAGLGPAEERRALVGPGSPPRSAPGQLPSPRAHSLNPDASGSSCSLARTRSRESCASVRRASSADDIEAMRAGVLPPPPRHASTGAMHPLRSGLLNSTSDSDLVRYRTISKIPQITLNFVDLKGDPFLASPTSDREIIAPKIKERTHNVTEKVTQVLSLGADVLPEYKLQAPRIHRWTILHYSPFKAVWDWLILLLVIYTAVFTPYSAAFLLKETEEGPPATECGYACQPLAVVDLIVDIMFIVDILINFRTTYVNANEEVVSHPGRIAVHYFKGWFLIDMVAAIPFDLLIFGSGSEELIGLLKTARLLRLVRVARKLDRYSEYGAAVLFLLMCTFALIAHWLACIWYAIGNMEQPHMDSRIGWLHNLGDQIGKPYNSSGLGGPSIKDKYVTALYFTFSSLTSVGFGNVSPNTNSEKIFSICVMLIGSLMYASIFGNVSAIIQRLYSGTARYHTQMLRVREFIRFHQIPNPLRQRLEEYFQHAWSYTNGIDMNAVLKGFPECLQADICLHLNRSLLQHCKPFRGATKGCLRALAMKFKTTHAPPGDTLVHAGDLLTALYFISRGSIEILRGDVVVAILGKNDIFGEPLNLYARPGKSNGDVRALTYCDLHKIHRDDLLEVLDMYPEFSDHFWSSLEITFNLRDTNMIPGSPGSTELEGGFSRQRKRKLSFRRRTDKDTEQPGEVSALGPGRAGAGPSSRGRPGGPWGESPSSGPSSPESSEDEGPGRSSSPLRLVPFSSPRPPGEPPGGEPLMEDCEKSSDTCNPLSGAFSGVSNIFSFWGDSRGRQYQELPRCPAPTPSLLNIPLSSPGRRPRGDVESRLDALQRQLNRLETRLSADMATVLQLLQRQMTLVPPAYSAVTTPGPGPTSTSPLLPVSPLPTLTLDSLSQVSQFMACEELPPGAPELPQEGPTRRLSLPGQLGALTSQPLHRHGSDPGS
# experimentalProtocol: [3H]Dofetilide binding assay, HEK-293 cell membrane preparation
# assaySetup: hERG Binding: Mean Ki (nM), Table 4; mean, minimally n = 3
Note: a bare number is incomplete; add the unit.

Field: example entries. Status: answers known.
compound: CC(Cc1ccc2[nH]cnc2c1)NCCCc1ccc(F)cc1 (stereo not shown)
recordedEndpoint: Ki
testValue: 2900 nM
//
compound: CC(Cc1ccc(F)c(F)c1)NCCCc1ccc(C(N)=O)c(F)c1 (stereo not shown)
recordedEndpoint: Ki
testValue: 12100 nM

Ask: Consider the compound CC(Cc1ccc(F)c(F)c1)NCCCc1cccc(C(N)=O)c1 (stereo not shown) . State its measured Ki.
Result: 4780 nM

Ask: Identify Ki associated with the compound CC(Cc1ccc2nccnc2c1)NCCCc1ccc(S(N)(=O)=O)cc1 (stereo not shown)
Result: 4390 nM

Ask: Look up and report measured Ki for this entry: CC(Cc1cc(F)cc(F)c1)NCCCc1ccc(C(N)=O)cc1 (stereo not shown)
Result: 8100 nM

Ask: Specify measured Ki for "COc1ccc(CCCN[C@@H](C)Cc2ccccc2)cc1" .
Result: 4160 nM

Ask: Name the recorded Ki of the compound listed here: CC(Cc1ccc(F)c(F)c1)NCCCc1ccc2cnoc2c1 (stereo not shown)
Result: 4200 nM

Ask: Let me know recorded Ki for CC(Cc1ccc2nccnc2c1)NCCCc1ccc(C(N)=O)cc1 (stereo not shown) , thanks.
Result: 21000 nM

Ask: Fill in reported Ki for this entry: CC(Cc1cccc(NC(N)=O)c1)NCCCc1ccc(F)cc1 (stereo not shown)
Result: 2750 nM

Ask: For the compound CC(Cc1cccc(N)c1)NCCCc1ccc(F)cc1 (stereo not shown) , report Ki.
Result: 2730 nM

###

# systemTested: hERG channel (Homo sapiens)
# Construct: purchased; host or cells: HEK-293 cells stably expressing hERG (membranes)
# experimentalProtocol: [3H]Dofetilide binding assay, HEK-293 cell membrane preparation
# assaySetup: hERG Binding: Mean Ki (nM), [3H]dofetilide binding, HEK-293 membranes; mean of n>=3 unless N given
Entries annotated with measured Ki
Give the value, in units of nM, as a plain number.

Below are worked cases with known answers.
compound: CC(Cc1ccc(F)c(F)c1)NCCCc1ccc(S(N)(=O)=O)cc1 (centres unmarked)
unitsOfMeasure: nM
Ki: 1030
--
compound: CC(Cc1ccc(F)cc1)NCCCc1ccccn1 (centres unmarked)
unitsOfMeasure: nM
Ki: 2400

Ask: Find the measured Ki of CC(Cc1ccc(F)c(F)c1)NCCCc1cccc2ncoc12 (centres unmarked) and report it.
Result: 3370

Ask: Identify the reported Ki for the following entry. CC(Cc1c[nH]c2ccccc12)NCCCc1ccc(F)cc1 (centres unmarked) [Compound 246]
Result: 731

###

# experimentalProtocol: Microsomal assays, rat liver microsomes
# assaySetup: female, Sprague-Dawley, rat, pH 7.4
The entries below are paired with their reported CLint scaled at 0.08 µM.
Give your result in mL/min/kg as a bare value.

molecule: CC(Cc1ccc(F)c(F)c1)NCCCc1ccc(C(N)=O)c(F)c1 (stereo not shown)
unitsOfMeasure: mL/min/kg
CLint scaled at 0.08 µM: 19

molecule: CC(Cc1ccc(F)c(F)c1)NCCCc1ccc2cnoc2c1 (stereo not shown)
unitsOfMeasure: mL/min/kg
CLint scaled at 0.08 µM: 117

molecule: CC(Cc1ccc(C(N)=O)cc1)NCCCc1ccc(F)cc1 (stereo not shown)
unitsOfMeasure: mL/min/kg
CLint scaled at 0.08 µM: 41

molecule: CC(Cc1ccc(F)c(F)c1)NCCCc1ccc(NC(N)=O)cc1 (stereo not shown)
unitsOfMeasure: mL/min/kg
CLint scaled at 0.08 µM: 41

molecule: CC(Cc1cccc(C(N)=O)c1)NCCCc1ccc(F)cc1 (stereo not shown)
unitsOfMeasure: mL/min/kg
CLint scaled at 0.08 µM: 22

molecule: CC(Cc1cccc(N)c1)NCCCc1ccc(F)cc1 (stereo not shown)
unitsOfMeasure: mL/min/kg
CLint scaled at 0.08 µM: 74

molecule: CC(Cc1ccc2[nH]cnc2c1)NCCCc1ccc(F)cc1 (stereo not shown)
unitsOfMeasure: mL/min/kg
CLint scaled at 0.08 µM: 40

Please look at the following molecule next.
Ask: Return CLint scaled at 0.08 µM for the following molecule: CC(Cc1ccc(F)c(F)c1)NCCCc1ccc2[nH]ncc2c1 (stereo not shown)
Result: 114

###

Known pKi of a selection of compounds
# systemTested: UniProt P23977
# Sequence (P23977 whole entry): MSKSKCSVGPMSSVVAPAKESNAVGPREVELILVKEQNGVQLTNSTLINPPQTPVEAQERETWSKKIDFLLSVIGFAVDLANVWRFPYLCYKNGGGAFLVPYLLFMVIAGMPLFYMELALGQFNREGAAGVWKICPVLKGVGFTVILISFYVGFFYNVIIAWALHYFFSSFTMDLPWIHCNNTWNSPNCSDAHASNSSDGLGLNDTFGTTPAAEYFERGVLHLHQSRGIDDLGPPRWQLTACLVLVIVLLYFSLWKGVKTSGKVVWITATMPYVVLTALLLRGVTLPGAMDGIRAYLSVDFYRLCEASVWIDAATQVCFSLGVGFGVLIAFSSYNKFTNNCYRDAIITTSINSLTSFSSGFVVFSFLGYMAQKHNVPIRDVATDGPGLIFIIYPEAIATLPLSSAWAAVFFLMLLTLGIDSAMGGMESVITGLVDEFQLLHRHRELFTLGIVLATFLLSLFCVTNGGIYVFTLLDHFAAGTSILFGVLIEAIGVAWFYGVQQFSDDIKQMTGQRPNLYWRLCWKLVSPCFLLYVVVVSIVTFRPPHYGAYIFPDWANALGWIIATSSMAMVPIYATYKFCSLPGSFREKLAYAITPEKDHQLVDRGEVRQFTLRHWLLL
# experimentalProtocol: [3H]DA uptake assay, synaptosomal preparation
Just the number, please; pKi means minus log10 of the concentration in mol/L.

Consider the reported pKi for these compounds:
compound: CC(Cc1cccc(NC(N)=O)c1)NCCCc1ccc(F)cc1 (centres unmarked)
pKi: 5.53
--
compound: CC(Cc1ccc(F)c(F)c1)NCCCc1ccc(NC(N)=O)cc1 (centres unmarked)
pKi: 5.82
--
compound: CC(Cc1cccc(F)c1)NCCCc1ccc(C(N)=O)cc1 (centres unmarked)
pKi: 5.79
--
compound: CC(Cc1cccc(N)c1)NCCCc1ccc(F)cc1 (centres unmarked)
pKi: 5.65
--
compound: CC(Cc1ccc2[nH]cnc2c1)NCCCc1ccc(F)cc1 (centres unmarked)
pKi: 5.32
--
compound: CC(Cc1ccc2nccnc2c1)NCCCc1ccc(C(N)=O)cc1 (centres unmarked)
pKi: 5.05

Ask: Determine from records and report pKi for CC(Cc1ccc(F)c(F)c1)NCCCc1ccc2[nH]ncc2c1 (centres unmarked)
Result: 6.15

Ask: For CC(Cc1cccc(C(N)=O)c1)NCCCc1ccc(F)cc1 (centres unmarked) , write its pKi.
Result: 5.22

Ask: Provide pKi value for the following compound: CC(Cc1ccc2nccnc2c1)NCCCc1ccc(F)cc1 (centres unmarked)
Result: 5.53

Ask: Please supply the value of reported pKi for the item CC(Cc1ccc(F)c(F)c1)NCCCc1ccc(C(N)=O)c(F)c1 (centres unmarked)
Result: 5.38

Ask: Please list pKi recorded for the compound CC(Cc1ccc2nccnc2c1)NCCCc1ccc(S(N)(=O)=O)cc1 (centres unmarked)
Result: 4.69

Ask: Give pKi for the following compound: CC(Cc1ccc(F)cc1)NCCCc1ccc(C(N)=O)cc1 (centres unmarked)
Result: 5.40

Ask: // fetch pKi given entry CC(Cc1ccc(C(N)=O)cc1)NCCCc1ccc(F)cc1 (centres unmarked)
Result: 5.25

Ask: Report measured pKi; entry is CC(Cc1ccc(F)c(F)c1)NCCCc1ccc2nn[nH]c2c1 (centres unmarked)
Result: 5.72

Ask: Respond only with pKi recorded for CC(Cc1ccc(F)c(F)c1)NCCCc1ccc(C(N)=O)cc1 (centres unmarked)
Result: 5.56

Ask: # return recorded pKi for entry CC(Cc1ccc(F)c(F)c1)NCCCc1cccc(NC(N)=O)c1 (centres unmarked)
Result: 5.89

Ask: Give the value of pKi reported for the following: CC(Cc1ccc(F)c(F)c1)NCCCc1cccc(C(N)=O)c1 (centres unmarked)
Result: 5.51

Ask: Give the reported value of pKi for this record: CC(Cc1ccc(F)c(F)c1)NCCCc1ccc(C(N)=O)c(Cl)c1 (centres unmarked)
Result: 5.24

Ask: For the compound CC(Cc1ccc(NC(N)=O)cc1)NCCCc1ccc(F)cc1 (centres unmarked) , report pKi.
Result: 5.50

Ask: Note pKi for the compound shown: CC(Cc1ccc(F)c(F)c1)NCCCc1ccc2nc[nH]c2c1 (centres unmarked)
Result: 5.52

###

# experimentalProtocol: in vitro
# assaySetup: both, human, pH 7.4
The entries below are paired with their reported half-life at 0.08 µM.
Reply with just the number (in min).

molecule: Fc1ccc(CCCNC(Cc2ccccc2)Cc2ccccc2)cc1 [Compound 292]
unitsOfMeasure: min
half-life at 0.08 µM: 36

Turning to the following molecule.
Ask: Give recorded half-life at 0.08 µM. CC(Cc1ccc(F)cc1)NC(=O)CCc1ccc([N+](=O)[O-])cc1 (centres unmarked) [Compound 293]
Result: 24

###

Form field: half-life at 0.08 µM (one value per entry).
# experimentalProtocol: Microsomal assays, human liver microsomes
# assaySetup: both, human, pH 7.4
// return numeric value only (unit: h, not printed)

compound: CC(Cc1ccccc1)NCCCc1ccc(F)cc1 (centres unmarked)
recordedEndpoint: half-life at 0.08 µM
testValue: 1.2

Ask: In one line, give reported half-life at 0.08 µM of the entry CC(Cc1ccc(F)cc1)NC(=O)CCc1ccc(C#N)cc1 (centres unmarked) .
Result: 0.8

###

Readings of log10 of CLint scaled at 0.08 µM for the listed compounds
# experimentalProtocol: Microsomal assays, rat liver microsomes
# assaySetup: female, Sprague-Dawley, rat, pH 7.4
Heads up: the numbers are on a log10 scale; they represent CLint scaled at 0.08 µM in mL/min/kg.

Ask: Provide log10 of CLint scaled at 0.08 µM value for the following compound: CC(Cc1ccc(F)c(F)c1)NCCCc1ccc(C(N)=O)cc1 (stereo not drawn)
Result: 1.36

Ask: Give recorded log10 of CLint scaled at 0.08 µM. CC(Cc1ccc(F)c(F)c1)NCCCc1cccc(NC(N)=O)c1 (stereo not drawn)
Result: 1.85

Ask: # return recorded log10 of CLint scaled at 0.08 µM for input CC(Cc1cccc(NC(N)=O)c1)NCCCc1ccc(F)cc1 (stereo not drawn)
Result: 1.67

Ask: Supply recorded log10 of CLint scaled at 0.08 µM for CC(Cc1ccc(F)cc1)NCCCc1ccc(C(N)=O)cc1 (stereo not drawn) here.
Result: 1.26

Ask: Assign log10 of CLint scaled at 0.08 µM to the following record: CC(Cc1ccc(F)c(F)c1)NCCCc1ccc2nc[nH]c2c1 (stereo not drawn)
Result: 1.68
